Ref: ChEMBL document CHEMBL1201862

System: HCT-116
Experiment: NCI tumour cell line growth inhibition, 48 h
Calls of active or inactive are those of the source. Cut-off read from the data, not from the text of the source: active = GI50 up to about 1.1 µM and inactive = higher.
Give one outcome, nothing more. List: 1.0 (active), 0.0 (inactive)

Compound	Category
O=C1/C(=C/c2cccc(Br)c2)Cc2ccccc21	0.0
COC(=O)C1CCC(=O)N1C(c1ccc2c(c1)OCO2)c1ccc2c(c1)OCO2 (centres undefined)	0.0
CO/C(N)=C(C#N)/N=C/c1ccsc1	0.0
C=C1c2[nH]c3ccccc3c2C2C(CC)C1CCN2C (centres undefined)	0.0
CCN(CC)CCNc1ccc2ncn3c4ccccc4c(=O)c1c23	1.0

Identify the outcome logged in this assay for the compound shown: `Cc1ccc(/N=C2N=C(Cl)/C(=C\c3ccco3)N\2)cc1`
0.0

Entry Nc1nc2c(c(=O)[nH]1)C(c1ccc(Cl)cc1)C=C(c1ccccc1)N2 (centres undefined) please
0.0

Entry COP12(OC)NC(=O)OC1(C(F)(F)F)c1ccccc1O2 (centres undefined) please
0.0

Entry `CNc1ccccc1S(=O)(=O)c1ccccc1[N+](=O)[O-]` please
0.0

Entry CC(OC(=O)NCn1cc(-c2ccccc2)nn1)c1ccccc1 (centres undefined) please
0.0

Entry `COC(=O)c1ccc(Oc2nc3ccccc3nc2-c2cccs2)cc1` please
0.0

Entry `COc1cc2c(c3c1c(=O)c1ccccc1n3C)C=CC1(CCCCC1)O2` please
0.0

Entry `CCOC(=O)c1ccc(-n2c(SCC)nc3sc(C)c(C)c3c2=O)cc1` please
0.0

Entry CC(=O)OCC1OC(n2cnc3nc(Br)[nH]c(=O)c32)C(OC(C)=O)C1OC(C)=O (centres undefined) please
0.0

Entry `CN(C(=O)c1cccs1)C(=S)N1CCN(c2ccccn2)CC1` please
0.0

Entry NC(=O)C1=C(O)C[C@@H]2CC3Cc4cccc(O)c4C(=O)C3=C(O)[C@]2(O)C1=O (some centres undefined) please
0.0

Entry `CCOC(=O)C(=Cc1ccc(Oc2ccccc2)cc1)C(=O)OCC` please
0.0

Entry `CCOc1ccccc1N1CSc2nnc(-c3ccccc3)n2C1` please
0.0

---

Test system: HOP-62
Assay: NCI tumour cell line growth inhibition, 48 h
Activity calls are given as the source filed them. Cut-off read from the data, not from the text of the source: active = GI50 up to about 1.1 µM and inactive = higher.
Property Label: GI50

Consider the reported GI50 for these compounds:
Compound	GI50
COC(=O)[C@H](Cc1ccccc1)NP(=O)(OCCC#N)OCC1OC(n2cc(C)c(=O)[nH]c2=O)CC1N=[N+]=[N-] (some centres undefined)	> 100 µM (inactive)
CC(=O)OCc1ccc2oc(=O)c(C(=O)Oc3ccccc3)cc2c1	> 100 µM (inactive)
CC(Oc1ccc(Cl)cc1Cl)C(=O)NN1C(=O)CSC1c1ccccc1 (centres undefined)	47.5 µM (inactive)
C[C@]12CC[C@H](OC3CCCCO3)CC1=CC[C@@H]1C2CC[C@]2(C)/C(=N/O)CCC12 (some centres undefined)	> 100 µM (inactive)
C/C(Cl)=N/OC(=O)Nc1ccc(F)c([N+](=O)[O-])c1	18.2 µM (inactive)
O=C(NN1C(=O)C(Cl)C1c1ccc(Cl)cc1)c1c(Cl)c(Cl)c(Cl)c(Cl)c1-c1nc2ccccc2[nH]1 (centres undefined)	40.2 µM (inactive)

Can you look up GI50 on HOP-62 for `Cc1nc2nn(Cc3ccccc3)cc2c(=O)o1` ?
> 100 µM (inactive)

Entry `CC(=O)O[C@H]1CC[C@@]2(C)C(=CC[C@H]3[C@@H]4C/C(=C\c5ccc(N(C)C)cc5)[C@H](OC(C)=O)[C@@]4(C)CC[C@@H]32)C1` please
14.1 µM (inactive)

Entry C=C(Cl)C(Cl)(CCl)CCC(Br)C(C)(C)Br (centres undefined) please
> 10 µM (inactive)

---

Tested on: SN12C
Experiment: NCI tumour cell line growth inhibition, 48 h
The source made the active and inactive calls. Cut-off read from the data, not from the text of the source: active = GI50 up to about 1.1 µM and inactive = higher.
Reported GI50 values for a set of compounds

Compound	Assayed Target	Val
O=C(/C(=C\I)c1ccccc1)c1ccccc1	SN12C	18 µM (inactive)
CCOC(=O)c1nnc2c(C(=O)OCC)c3ccccc3n2c1N	SN12C	6.67 µM (inactive)
COc1ccccc1NC(=S)N/N=C1\C(=O)Nc2ccccc21	SN12C	> 100 µM (inactive)
COC(=O)CCC(=O)C(CC(=O)OC)C(=O)CCC(=O)NCCc1ccccc1 (stereo unspecified)	SN12C	> 100 µM (inactive)

Look up GI50: `CCOC(=O)/C=C(/C(=O)OCC)n1ccc(=O)n(Cc2cnnn2COCCOC(C)=O)c1=O`
22.1 µM (inactive)

Entry COC1=CC2(CC(OC)=C1OC)OC21COc2ccccc2C1=O (stereo unspecified) please
47.2 µM (inactive)

Entry `CCOC(=O)c1ccc(-n2c(SCC)nc3sc(C)c(C)c3c2=O)cc1` please
> 100 µM (inactive)

Entry `COc1ccc(CNc2cnc3ccc(N)cc3n2)cc1OC` please
> 100 µM (inactive)

Entry `O=C(N/C(=C\c1ccccc1Cl)c1nc2ccccc2[nH]1)c1ccccc1` please
16.7 µM (inactive)

Entry `Cc1ccc(-c2cc(=O)c3cc(C)c(C)c(C(=O)O)c3o2)cc1C` please
> 100 µM (inactive)

Entry `CNc1ccccc1S(=O)(=O)c1ccccc1[N+](=O)[O-]` please
92.7 µM (inactive)

Entry `CC1(C)COC(c2cccc(C(=O)c3ccccc3)c2)=N1` please
32 µM (inactive)

Entry CN1CC2CC(C1)c1cccc(=O)n1C2 (stereo unspecified) please
> 100 µM (inactive)

Entry CN(CCS(=O)(=O)N1C(=O)C2CCCN2C(=O)[C@@H]1Cc1ccccc1)C(=O)OCc1ccccc1 (stereo partly specified) please
91.6 µM (inactive)

Entry `COC1=CC(=O)c2c(ccc3ncnc(N)c23)C1=O` please
1.87 µM (inactive)

Entry COC(=O)C1CCC(N2C(=O)CCC2C(=O)OC)=N1 (stereo unspecified) please
> 100 µM (inactive)

Entry `Cn1cc(NC(=O)Nc2cc(C(=O)Nc3cc(C(=O)Nc4ccc(S(=O)(=O)O)c5cc(S(=O)(=O)O)ccc45)n(C)c3)n(C)c2)cc1C(=O)Nc1cc(C(=O)Nc2ccc(S(=O)(=O)O)c3cc(S(=O)(=O)O)ccc23)n(C)c1` please
> 100 µM (inactive)

Entry `CC(=O)Nc1ccc(CNc2cc(=O)[nH]c(=O)[nH]2)cc1` please
> 100 µM (inactive)

---

Reported GI50 values for a set of compounds
Tested on: SW-620
Test: NCI tumour cell line growth inhibition, 48 h
Calls of active or inactive are those of the source. Cut-off read from the data, not from the text of the source: active = GI50 up to about 1.1 µM and inactive = higher.

Consider the reported GI50 for these compounds:
Chem Smiles	Assayed Target	GI50
O/N=C1\SC(=N\O)/C(=N/O)S\C1=N/O	SW-620	> 100 µM (inactive)
O=C(O)C1=C(C(=O)O)Oc2ccccc2O1	SW-620	> 100 µM (inactive)
CC(=O)C(=N\Nc1ccc(Cl)cc1)/C(C)=N/c1ccc(C)cc1	SW-620	41.6 µM (inactive)
O=C1CSC(=S)N1	SW-620	> 100 µM (inactive)

Here is another compound to look at.
Look up GI50: `CC(=O)O[C@H]1CC[C@@]2(C)C(=CC[C@H]3[C@@H]4C/C(=C\c5ccc(N(C)C)cc5)[C@H](OC(C)=O)[C@@]4(C)CC[C@@H]32)C1`
14.9 µM (inactive)

---

System: SR
Experiment: NCI tumour cell line growth inhibition, 48 h
Calls of active or inactive are those of the source. Rule as the data show it: active = GI50 up to about 1.1 µM and inactive = higher.
Property Label: GI50

Consider the reported GI50 for these molecules:
Molecule	Val
O=C1COc2cccnc2N1CCCCO	> 100 µM (inactive)
CC(=O)OCC1OC(n2cccnc2=O)C(OC(C)=O)C1OC(C)=O (stereo not given)	> 100 µM (inactive)
Cc1nc2ccc(S(=O)(=O)O)cc2c(=O)n1-c1ccc(C(=O)NN2C(=O)C(Cl)C2c2ccccc2O)cc1 (stereo not given)	> 100 µM (inactive)

Look up GI50: `Cc1cccc(C(C)C)c1NC(=O)C(=O)CC(=O)c1sc(Nc2ccccc2Cl)nc1C`
18.2 µM (inactive)

---

Tested on: OVCAR-3
Test: NCI tumour cell line growth inhibition, 48 h
Calls of active or inactive are those of the source. Cut-off read from the data, not from the text of the source: active = GI50 up to about 1.1 µM and inactive = higher.
Property Label: GI50

Consider the reported GI50 for these molecules:
Molecule	Assayed Target	GI50
Cc1ccc(C)c2c1C1CCCCC3(OCCCO3)C21O (configuration not stated)	OVCAR-3	51.4 µM (inactive)
COc1cc(C2SCC(=O)N2c2ccc(Cl)cc2)cc(I)c1O (configuration not stated)	OVCAR-3	33.8 µM (inactive)
C/C(=N/NS(=O)(=O)c1ccc(C)cc1)c1cccc[n+]1[O-]	OVCAR-3	> 100 µM (inactive)
COc1ccc(CNc2cnc3ccc(N)cc3n2)cc1OC	OVCAR-3	> 100 µM (inactive)
O=C1COc2cccnc2N1CCCCO	OVCAR-3	> 100 µM (inactive)

Look up GI50: `O=C(O)/C=C(/CC(=O)O)C(=O)O`
15.7 µM (inactive)

Entry `O=C1/C(=C/c2ccc3c(c2)OCCO3)CCC/C1=C\c1ccc2c(c1)OCCO2` please
20.3 µM (inactive)

Entry CCOC(=O)C(C(=S)Nc1ccccc1)c1nn2c(=O)cc(C)nc2s1 (configuration not stated) please
24.5 µM (inactive)

Entry `CNC(=O)CCCN(C)C(=O)CCCCC(=O)N(C)C` please
> 92.3 µM (inactive)

Entry `Cc1nc(-n2nc(-c3ccccc3)cc2-c2ccccc2)sc1C(=O)/C=C/c1cccc([N+](=O)[O-])c1` please
3.03 µM (inactive)

Entry OC12c3ccccc3C3CCC4(OCCO4)C3C1c1ccccc12 (configuration not stated) please
> 100 µM (inactive)

Entry `C/C(CC(=O)CCCC(=O)Nc1ccc(Cl)cc1Cl)=N/NC(=O)CC#N` please
> 100 µM (inactive)
